Target Or System: recombinant human secreted phospholipase A2 (Homo sapiens, UniProt P14555)
Sequence (P14555 21-144): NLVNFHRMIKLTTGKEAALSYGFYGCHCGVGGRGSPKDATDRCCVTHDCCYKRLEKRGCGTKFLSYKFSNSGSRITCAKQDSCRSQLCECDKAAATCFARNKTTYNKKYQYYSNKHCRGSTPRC
Measurement Description: chromogenic assay for inhibitors of recombinant human secreted phospholipase A2
Type: biochemical
Condition Description: diheptanoyl thio-PC substrate, pH 7.5, 40° C. for 30 minutes, absorbance at 405 nanometers; read-out: Inhibition of human secreted PLA2 IC50 ± mean deviation (3-4 tests)
Measured Parameter: IC50 (nM)

Some solved entries appear below for comparison.
CCc1c(C(=O)C(N)=O)c2c(OCC(=O)N[C@@H](Cc3ccccc3)C(=O)O)cccc2n1Cc1ccccc1: 64
CCc1c(C(=O)C(N)=O)c2c(OCC(=O)NCC(=O)O)cccc2n1Cc1ccccc1: 71
CCc1c(C(=O)C(N)=O)c2c(OCC(=O)N[C@H](C(=O)O)[C@@H](C)CC)cccc2n1Cc1ccccc1: 25.1

1. CCc1c(C(=O)C(N)=O)c2c(OCC(=O)N[C@@H](CC(C)C)C(=O)OC)cccc2n1Cc1ccccc1
2. CCc1c(C(=O)C(N)=O)c2c(OCC(=O)N[C@@H](CC(=O)OC)C(=O)OC)cccc2n1Cc1ccccc1
When their IC50 values are compared, which is larger, 1 or 2 ? Use the label to indicate which entry you chose.
2
